assay summary: refractive index (Na D-line) (dimensionless)
study conditions: 293.1 K; 101.33 kPa; Liquid; Standard Abbe refractometry
property label: refractive index
# print the numeric value only

>>> print(df.to_string())
                                   compound    property_label  reported_value
0  CCCCn1cc[n+](C)c1.F[P-](F)(F)(F)(F)F [1-butyl-3-methylimidazolium hexafluorophosphate]  refractive index          1.3803
1                            CCCCCCCCCCCCCC  refractive index          1.4289
2                              CCCCCCCCCCCC  refractive index           1.422

Ask: Data request, read-out refractive index, for "CCCc1ccccc1"
Result: 1.4915
